# EXPERIMENTAL_SYSTEM: hepatitis C virus RNA dependant polymerase (NS5B) (Hepatitis C virus genotype 1b)
# Sequence (P26663 2420-3010): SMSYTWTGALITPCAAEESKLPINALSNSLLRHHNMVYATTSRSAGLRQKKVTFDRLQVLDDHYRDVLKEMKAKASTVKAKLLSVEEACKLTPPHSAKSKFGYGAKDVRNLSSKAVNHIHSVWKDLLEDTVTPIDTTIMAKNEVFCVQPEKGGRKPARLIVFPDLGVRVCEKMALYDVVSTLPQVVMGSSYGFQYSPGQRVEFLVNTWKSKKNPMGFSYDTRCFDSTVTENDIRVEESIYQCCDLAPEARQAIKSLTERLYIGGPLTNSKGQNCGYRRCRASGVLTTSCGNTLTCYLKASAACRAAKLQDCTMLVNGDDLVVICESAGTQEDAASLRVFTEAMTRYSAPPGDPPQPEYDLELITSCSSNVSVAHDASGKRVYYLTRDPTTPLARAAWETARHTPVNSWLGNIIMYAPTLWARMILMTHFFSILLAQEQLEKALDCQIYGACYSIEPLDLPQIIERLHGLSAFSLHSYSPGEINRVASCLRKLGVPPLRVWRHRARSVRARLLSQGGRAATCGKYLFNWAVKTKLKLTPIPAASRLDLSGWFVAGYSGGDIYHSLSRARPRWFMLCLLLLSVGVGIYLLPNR
# TEST_SUMMARY: Inhibition of NS5B RNA dependent RNA polymerase activity
# Format: biochemical
# ASSAY_CONTEXT: Table 1; HCV NS5B polymerase
In this section, each of the compounds is paired with its reported IC50.
PROPERTY_MEASURED: IC50

>  <COMPOUND>
O=C(O)c1ccc2c(C3CCCCC3)c(-c3ccoc3)n(CC(=O)N3CCN(CCO)CC3)c2c1

>  <PROPERTY_MEASURED>
IC50

>  <ASSAY_RESULT>
< 200 nM

$$$$
>  <COMPOUND>
O=C(O)c1ccc2c(C3CCCCC3)c(-c3ccoc3)n(CC(=O)N3CCCC(C(=O)O)C3)c2c1 (stereo not shown)

>  <PROPERTY_MEASURED>
IC50

>  <ASSAY_RESULT>
< 200 nM

$$$$
>  <COMPOUND>
CC(C)(NC(=O)Cn1c(-c2ccoc2)c(C2CCCCC2)c2ccc(C(=O)O)cc21)C(=O)Nc1ccc(-c2nc(C(=O)O)cs2)cc1

>  <PROPERTY_MEASURED>
IC50

>  <ASSAY_RESULT>
< 200 nM

$$$$
>  <COMPOUND>
O=C(O)c1ccc2c(C3CCCCC3)c(-c3ccsc3)n(CC(=O)N3CCOCC3)c2c1

>  <PROPERTY_MEASURED>
IC50

>  <ASSAY_RESULT>
< 200 nM

$$$$

Where these numbers come from: patent US7888363B2
